Data export: Ki values recorded with SARS-CoV-2 PL^pro (Severe acute respiratory syndrome coronavirus 2).
Give the value, in units of µM, as a plain number.

Prompt: Given the compound COC(=O)/C=C/CNC(=O)CNC(=O)CNC(=O)C1CCN(C(C)c2cccc3ccccc23)CC1 (centres unmarked) , what is its reported Ki?
Response: 5.32

Prompt: Queued: COC(=O)/C=C/C(=O)NNC(=O)CNC(=O)CNC(=O)C1CCN(C(C)c2cccc3ccccc23)CC1 (centres unmarked)
Response: 4.65

* * *

test system: HEK293T cells; assay: Cytotoxicity, cell counting kit-8 (CCK8) assay; conditions: HEK293T cells, 24 h
property-name: CC50 (µM)
Give the value, in units of µM, as a plain number.

Prompt: Given the compound COC(=O)/C=C/C(=O)NNC(=O)CCc1ccccc1C(=O)NC(C)c1cccc2ccccc12 (centres unmarked) [compound 3, reference compound] , what is its reported CC50?
Response: 58.3

* * *

target: SARS-CoV-2 PL^pro (Severe acute respiratory syndrome coronavirus 2); assay: biochemical; conditions: RLRGG-AMC substrate, 60 min incubation
property-name: IC50 (µM)
Give the value, in units of µM, as a plain number.

Prompt: # query: IC50 | item COC(=O)/C=C/CNC(=O)CNC(=O)CNC(=O)C1CCN(C(C)c2cccc3ccccc23)CC1 (centres unmarked) [compound 2] | system: SARS-CoV-2 PL^pro (Severe acute respiratory syndrome coronavirus 2)
Response: 0.46

Prompt: Queued: COC(=O)/C=C/C(=O)NNC(=O)CNC(=O)CNC(=O)C1CCN(C(C)c2cccc3ccccc23)CC1 (centres unmarked) [compound 4]
Response: 0.23

* * *

target: SARS-CoV PL^pro (Severe acute respiratory syndrome coronavirus)
property-name: pIC50
In plain terms, pIC50 is the concentration in mol/L turned into minus its base-10 logarithm.

Prompt: Given the molecule COC(=O)/C=C/CNC(=O)CNC(=O)CNC(=O)C1CCN(C(C)c2cccc3ccccc23)CC1 (stereo not shown) [compound 2] , what is its reported pIC50?
Response: 6.41
